# Test system: Human immunodeficiency virus 2
# procedure.details: Antiviral activity against HIV2 ROD in CEM cells
# Assay type: functional, organism-based
# conditions: Human immunodeficiency virus 2, ROD, CCRF-CEM
Below, each entry is listed with its recorded EC50.
Write the number in µM without appending the unit.

Example entries and their recorded answers appear below.
{"columns": ["compound", "system.under.test", "uom", "EC50"],
 "data": [
  ["COC(=O)[C@H](Cc1ccc(OC(C)(C)C)cc1)NP(=O)(OC[C@H]1C=C[C@@H](n2cnc3c(N)ncnc32)C1)Oc1ccccc1 (some centres undefined)", "Human immunodeficiency virus 2", "µM", 5.5],
  ["COC(=O)[C@@H](CCSC)NP(=O)(OC[C@H]1C=C[C@@H](n2cnc3c(N)ncnc32)C1)Oc1ccccc1 (some centres undefined)", "Human immunodeficiency virus 2", "µM", 7.87],
  ["COC(=O)C[C@@H](NP(=O)(OC[C@H]1C=C[C@@H](n2cnc3c(N)ncnc32)C1)Oc1ccccc1)C(=O)OC (some centres undefined)", "Human immunodeficiency virus 2", "µM", 15]
]}

So for COC(=O)[C@H](C)NP(=O)(OC[C@H]1C=C[C@@H](n2cnc3c(N)ncnc32)C1)Oc1ccccc1 (some centres undefined) , the logged EC50 turned out to be 0.09

# credit: ChEMBL document CHEMBL1138881
